# tgt: T1, human PVRIG-his (AcroBiosystems, Cat NO. PVG-H52H4) (human, UniProt Q6DKI7 41-171, limits assumed)
# T1 construct: also called human PVRIG protein
# T1 sequence (looked up): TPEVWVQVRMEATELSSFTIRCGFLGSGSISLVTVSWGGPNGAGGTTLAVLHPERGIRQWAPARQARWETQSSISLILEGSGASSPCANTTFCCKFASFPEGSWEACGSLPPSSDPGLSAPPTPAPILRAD
# method-summary: ELISA, antigen coated
Exercise: for every item that follows, state its recorded EC50.
Give your result in nM as a bare value.

## Input # lookup: EC50 of PVRIG-A105-H4 (Fc fusion, humanized variant of PVRIG-A105; also called A105.VH4; not shown: constant part not restated for the humanized forms; parents are VHH-hinge-CH2-CH3 of human IgG1; detected by anti-human) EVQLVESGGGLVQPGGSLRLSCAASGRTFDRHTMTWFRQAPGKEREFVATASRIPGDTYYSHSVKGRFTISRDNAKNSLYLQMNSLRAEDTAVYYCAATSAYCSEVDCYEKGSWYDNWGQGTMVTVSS
## Output 0.0521

## Input # lookup: EC50 of PVRIG-A105-H1 (Fc fusion, humanized variant of PVRIG-A105; also called A105.VH1; not shown: constant part not restated for the humanized forms; parents are VHH-hinge-CH2-CH3 of human IgG1; detected by anti-human) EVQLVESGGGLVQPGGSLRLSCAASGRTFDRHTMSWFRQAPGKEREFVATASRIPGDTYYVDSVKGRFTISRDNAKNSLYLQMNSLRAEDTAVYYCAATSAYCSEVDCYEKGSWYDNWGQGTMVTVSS
## Output 0.0487

## Input # lookup: EC50 of PVRIG-A118-H5 (Fc fusion, humanized variant of PVRIG-A118; also called A118.VH5; not shown: constant part not restated for the humanized forms; parents are VHH-hinge-CH2-CH3 of human IgG1; detected by anti-human) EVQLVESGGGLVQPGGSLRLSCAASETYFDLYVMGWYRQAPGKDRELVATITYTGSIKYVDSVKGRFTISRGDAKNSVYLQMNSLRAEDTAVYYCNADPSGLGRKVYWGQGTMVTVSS
## Output 0.0481

## Input # lookup: EC50 of PVRIG-A50-H1 (Fc fusion, humanized variant of PVRIG-A50; also called A50.VH1; not shown: constant part not restated for the humanized forms; parents are VHH-hinge-CH2-CH3 of human IgG1; detected by anti-human) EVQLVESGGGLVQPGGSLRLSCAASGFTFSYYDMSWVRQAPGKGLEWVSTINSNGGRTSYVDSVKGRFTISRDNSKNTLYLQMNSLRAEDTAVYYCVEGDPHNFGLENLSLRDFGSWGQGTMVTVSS
## Output 0.0871
